Where do the numbers come from? From the supplement of paper PMC10567573.

B1: SPOPL (parent)
chain: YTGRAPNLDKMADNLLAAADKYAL

Variants of: B1
Assay: protein stability index of a GFP-peptide fusion (GPS, HEK-293T) (PSI 1-6); higher = more stable;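 note: lentivirally expressed fusions sorted by FACS into six bins by GFP to DsRed ratio, PSI derived from sequencing read proportions per bin multiplied by bin number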
Settings: c terminus: a fixed tail appended
Would you mind labelling by protein stability index? At or over 2 is MET, under is NOT MET.

seq_string="YTGRAPNLDKMADNLLAAADKHAL [Y22H]" label=MET
seq_string="YTGRAFNLDKMADNLLAAADKYAL [P6F]" label=MET
seq_string="YTGRAPNLDKMADNLLAAADKNAL [Y22N]" label=MET
seq_string="YKGRAPNLDKMADNLLAAADKYAL [T2K]" label=MET
seq_string="YTGRAPNLDKMADNLTAAADKYAL [L16T]" label=MET
seq_string="YTIRAPNLDKMADNLLAAADKYAL [G3I]" label="NOT MET"
seq_string="YTGRAPNLDKMADTLLAAADKYAL [N14T]" label="NOT MET"
seq_string="YTGRAPNLDKMADNLLAAADCYAL [K21C]" label="NOT MET"
seq_string="YTGRGPNLDKMADNLLAAADKYAL [A5G]" label="NOT MET"
seq_string="YTGRAENLDKMADNLLAAADKYAL [P6E]" label=MET
seq_string="YTGRAPNLDKMADNLLAAADGYAL [K21G]" label="NOT MET"
seq_string="YTWRAPNLDKMADNLLAAADKYAL [G3W]" label=MET
seq_string="YTGRAPNLDKMADMLLAAADKYAL [N14M]" label=MET
seq_string="YTGRAPWLDKMADNLLAAADKYAL [N7W]" label="NOT MET"
seq_string="YTGRAPNLDKMADNNLAAADKYAL [L15N]" label=MET
seq_string="YTGRAPNLDKMMDNLLAAADKYAL [A12M]" label=MET
seq_string="YTGRAPNLDKMADNLLAAALKYAL [D20L]" label="NOT MET"
seq_string="YTTRAPNLDKMADNLLAAADKYAL [G3T]" label="NOT MET"
seq_string="YTGRAPNLDKPADNLLAAADKYAL [M11P]" label=MET
seq_string="YTGRAPNLDKMADNLLGAADKYAL [A17G]" label=MET
seq_string="YTGPAPNLDKMADNLLAAADKYAL [R4P]" label=MET
seq_string="YTGRAPNPDKMADNLLAAADKYAL [L8P]" label=MET
seq_string="YTGRAPNLDKMADNLLALADKYAL [A18L]" label=MET
seq_string="CTGRAPNLDKMADNLLAAADKYAL [Y1C]" label=MET
seq_string="YTGRAPVLDKMADNLLAAADKYAL [N7V]" label="NOT MET"
seq_string="YTGRAPNLDKEADNLLAAADKYAL [M11E]" label=MET
seq_string="YTGRACNLDKMADNLLAAADKYAL [P6C]" label="NOT MET"
seq_string="YTLRAPNLDKMADNLLAAADKYAL [G3L]" label=MET
seq_string="YTGRAPNLDKMADNLLAAASKYAL [D20S]" label="NOT MET"
seq_string="YTGRAPNLDKMADNLLAAADKYLL [A23L]" label="NOT MET"
seq_string="YTGRAPNLDKWADNLLAAADKYAL [M11W]" label=MET
seq_string="YLGRAPNLDKMADNLLAAADKYAL [T2L]" label=MET
seq_string="YTGRAPNTDKMADNLLAAADKYAL [L8T]" label=MET
seq_string="YQGRAPNLDKMADNLLAAADKYAL [T2Q]" label=MET
seq_string="YTGRAPNLWKMADNLLAAADKYAL [D9W]" label=MET
seq_string="YTGRAPNLDKMADNLLAWADKYAL [A18W]" label=MET
seq_string="YTGRAPNLDKMADNLLAYADKYAL [A18Y]" label=MET
seq_string="YTGRAPNLDKMADNLLEAADKYAL [A17E]" label=MET
seq_string="YTGRAPNLDKMADNLLAAADEYAL [K21E]" label=MET
seq_string="YTGRAPNLDKMADNLLAAADKYAE [L24E]" label=MET
seq_string="YTGRAPNLDKMADNLLAAADKLAL [Y22L]" label="NOT MET"
seq_string="YTGRAPNLDKMADNMLAAADKYAL [L15M]" label=MET
seq_string="ATGRAPNLDKMADNLLAAADKYAL [Y1A]" label=MET
seq_string="YTGRAPNLPKMADNLLAAADKYAL [D9P]" label=MET
seq_string="YTGRAPNHDKMADNLLAAADKYAL [L8H]" label=MET
